test: Cytotoxicity assay in Vero E6 cells (neutral red uptake); assay type: cell-based; conditions: African green monkey, 2 days at 37° C.
This section presents compounds with their documented CC50 at 2 days values.

{"columns": ["MOL_SMILES", "CC50 at 2 days"],
 "data": [
  ["C#CCNC(=O)CCc1ccccc1C(=O)N[C@H](C)c1cc(-c2cnn(C)c2)cc(-c2ccn(CC)n2)c1", "256 µM"],
  ["CCn1ccc(-c2cc(-c3cnn(C)c3)cc([C@@H](C)NC(=O)c3ccccc3CCC(=O)NNC(=O)/C=C/C(=O)NC3CC3)c2)n1", "> 250 µM"],
  ["CCn1ccc(-c2cc(-c3cnn(C)c3)cc([C@@H](C)NC(=O)c3ccccc3CCC(=O)NNS(=O)(=O)CCl)c2)n1", "> 250 µM"],
  ["CCn1ccc(-c2cc(-c3cnn(C)c3)cc([C@@H](C)NC(=O)c3ccccc3CCC(=O)NNC(=O)/C=C/CN(C)C)c2)n1", "> 500 µM"],
  ["CCn1ccc(-c2cc(-c3cnn(C)c3)cc([C@@H](C)NC(=O)c3ccccc3CCC(=O)NNC(=O)/C=C/C(=O)NC34CC(C3)C4)c2)n1", "> 250 µM"],
  ["C=C(Cl)C(=O)NNC(=O)CCc1ccccc1C(=O)N[C@H](C)c1cc(-c2cnn(C)c2)cc(-c2ccn(CC)n2)c1", "33 µM"],
  ["C=C(F)C(=O)NNC(=O)CCc1ccccc1C(=O)N[C@H](C)c1cc(-c2cnn(C)c2)cc(-c2ccn(CC)n2)c1", "> 250 µM"],
  ["CCn1ccc(-c2cc(-c3cnn(C)c3)cc([C@@H](C)NC(=O)c3ccccc3CCC(=O)NCC(=O)CF)c2)n1", "> 250 µM"],
  ["CCn1ccc(-c2cc(-c3cnn(C)c3)cc([C@@H](C)NC(=O)c3ccccc3CCC(=O)NNC(=O)/C=C/C(=O)N(C)C)c2)n1", "> 500 µM"],
  ["CCn1ccc(-c2cc(-c3cnn(C)c3)cc([C@@H](C)NC(=O)c3ccccc3CCC(=O)NNC(=O)CCl)c2)n1", "> 250 µM"],
  ["C=CC(=O)NNC(=O)CCc1ccccc1C(=O)N[C@H](C)c1cc(-c2cnn(C)c2)cc(-c2ccn(CC)n2)c1", "> 500 µM"],
  ["CCn1ccc(-c2cc(-c3cnn(C)c3)cc([C@@H](C)NC(=O)c3ccccc3CCC(=O)NNC(=O)C(Cl)Cl)c2)n1", "> 500 µM"],
  ["CCn1ccc(-c2cc(-c3cnn(C)c3)cc([C@@H](C)NC(=O)c3ccccc3CCC(=O)NNC(=O)/C=C/C(=O)N3CCC3)c2)n1", "> 250 µM"]
]}
